Hi, quick share: literature pIC50 data for UniProt Q16288, several sources combined.
API: returns pIC50 as number; meaning -log10 of concentration in mol/L.

Inquiry: What value of pIC50 has been recorded for this entry: Cn1ccc(-c2cc(C(=O)Nc3cc(C(=O)O)cnc3-c3ccccc3)ccc2C(F)(F)F)n1
Reply text: 4.69

Inquiry: What value of pIC50 has been recorded for this entry: CN1CCN(Cc2ccc(NC(=O)[C@@H]3CCN(c4ccc5ncc(-c6cn[nH]c6)n5n4)C3)cc2C(F)(F)F)CC1
Reply text: 8.11

Inquiry: What value of pIC50 has been recorded for this entry: CCOc1nn(-c2ccccc2)c(NC(=O)N[C@H]2CN(CCOC)C[C@@H]2c2ccc(F)c(F)c2)c1C
Reply text: 5.60

Inquiry: What value of pIC50 has been recorded for this entry: CN(C)S(=O)(=O)c1ccc2c(c1)/C(=C/c1cn(C)c3ccc(O)cc13)C(=O)N2
Reply text: 8.01

Inquiry: What value of pIC50 has been recorded for this entry: CCCCNc1ncc2c(-c3ccc(CN4CCN(C)CC4)cc3)cn([C@H]3CC[C@H](O)CC3)c2n1
Reply text: 8.36

Inquiry: What value of pIC50 has been recorded for this entry: Cc1conc1NC(=O)N[C@@H]1CCN(c2ccc3ncc(-c4ccccn4)n3n2)C1
Reply text: 7.43

Inquiry: What value of pIC50 has been recorded for this entry: CN1CCN(Cc2cc(NC(=O)[C@@H]3CCN(c4ccc5ncc(-c6ccccn6)n5n4)C3)cc(C(F)(F)F)c2)CC1
Reply text: 8.09

Inquiry: What value of pIC50 has been recorded for this entry: O=C(Nc1ccc(Cl)c(C(F)(F)F)c1)N[C@@H]1CCN(c2ccc3ncc(-c4ccccn4)n3n2)C1
Reply text: 7.77

Inquiry: What value of pIC50 has been recorded for this entry: CN1CCN(Cc2cc(NC(=O)[C@H]3CCN(c4ccc5ncc(-c6ccccn6)n5n4)C3)cc(C(F)(F)F)c2)CC1
Reply text: 7.40

---

Hi, quick share: literature pIC50 data for NT-3 growth factor receptor (Homo sapiens), several sources combined.
API: returns pIC50 as number; meaning -log10 of concentration in mol/L.

Inquiry: Please tell me: pIC50 of CCC[C@H](C)Nc1ncc2c(-c3ccc(CN4CCCN(C)CC4)cc3)cn([C@H]3CC[C@H](O)CC3)c2n1 , system NT-3 growth factor receptor (Homo sapiens)?
Reply text: 8.08

Inquiry: Please tell me: pIC50 of CN1CCN(Cc2ccc(NC(=O)[C@@H]3CCN(c4ccc5ncc(-c6cccnc6)n5n4)C3)cc2C(F)(F)F)CC1 , system NT-3 growth factor receptor (Homo sapiens)?
Reply text: 8.10

Inquiry: Please tell me: pIC50 of CC1(C)c2cc(OCCN3CCOCC3)ccc2C(=O)c2c1oc1cc(C#Cc3cc(OCC4CC4)ccn3)ccc21 , system NT-3 growth factor receptor (Homo sapiens)?
Reply text: 8.16

Inquiry: Please tell me: pIC50 of CN(C)CCCOc1ccc2c(NCCc3cnc(NC(=O)Nc4cccc(Cl)c4)s3)ncnc2c1 , system NT-3 growth factor receptor (Homo sapiens)?
Reply text: 9.68

Inquiry: Please tell me: pIC50 of CC(O)(C#Cc1ccc(N2CCOCC2)c(Nc2ncnc3[nH]ccc23)c1)c1nccs1 (racemic) , system NT-3 growth factor receptor (Homo sapiens)?
Reply text: 7.30

Inquiry: Please tell me: pIC50 of Cc1nc([C@](C)(O)CO)sc1-c1cnc(N)c(O[C@H](C)c2cc(F)ccc2-n2nccn2)c1 , system NT-3 growth factor receptor (Homo sapiens)?
Reply text: 7.74

Inquiry: Please tell me: pIC50 of CN1CCC(n2cc(Nc3nc(OC4(C)CC4)c4nc(-c5cncnc5)ccc4n3)cn2)CC1 , system NT-3 growth factor receptor (Homo sapiens)?
Reply text: 7.44
